Tested on: HCT-116 colon
Assay: NCI-60 one-dose screen, 48 h
Settings: 10 µM unless noted
This is part of a sample that, as a whole, favours compounds with a hit. Of some 83,000 tested, about 20% had one in any assay. Calls of active or inactive are those of the source. Rule for the calls: active = growth percent below 10; inactive = the rest.
The reply should be one of these categories: active, inactive

Req: Outcome? COc1cc(/C=C/c2c(C(C)=O)c(C)nc3ccccc23)cc(OC)c1OC
Resp: inactive

Req: Could you please tell me the result logged for O=[N+]([O-])c1ccc(Cl)c(-c2cc(CCCCO)on2)c1 in this assay?
Resp: inactive

----------
Tested on: MDA-MB-231 breast
Assay: NCI-60 one-dose screen, 48 h
Conditions: 10 µM unless noted
Compounds without any hit were thinned out: in the full panel of roughly 83,000, 20% have a hit. Activity calls are given as the source filed them. The calls were made as follows: active = growth percent below 10; inactive = the rest.
Return exactly one item of Y for active, N for inactive

Req: Tell me the assay call for COc1ccc(-c2[nH]c3ccc(OC)cc3c2/C=C(\C#N)S(=O)(=O)c2ccccc2)cc1 please.
Resp: N

Req: Returns: the outcome recorded for NC1=NC(c2cccc(Br)c2)c2sc3ccc(Cl)cc3c2N1 (stereo not drawn) in this assay.
Resp: N

Req: Query: recorded result category for CCc1ccc(Oc2c(-c3ccc(OCCc4cccc(C(F)(F)F)c4)cc3O)n[nH]c2C(F)(F)F)cc1 in this test
Resp: N

Req: Identify the outcome logged in this assay for the compound shown: COc1cc2cc(Oc3ccc(NC(=O)Nc4cc(C(F)(F)F)cc(C(F)(F)F)c4)cc3)c(C)nc2cc1OCCN1CCOCC1
Resp: Y

Req: Outcome? COc1cc(CNS(=O)(=O)c2ccc(C)cc2)ccc1OCc1cn(-c2ccccc2)nn1
Resp: N

Req: Status in this test for O=C(/C=C/c1sc(Cl)nc1Cl)c1ccc(F)cc1 ?
Resp: N

Req: Please let me know the test result on file for c1ccc(-c2nc3sc(-c4ccccc4)cn3n2)cc1 .
Resp: N

Req: # fetch the recorded call for Cc1cccc2c3c(sc12)C(c1ccc(F)cc1)C(C#N)=C(N)O3 (stereo not drawn) here
Resp: N

Req: Please share the test call associated with O=c1c2cc(F)ccc2sc2c(N3CCCCC3)nc3ccccc3c12 .
Resp: N

Req: Short answer needed: outcome of this test for CC1=NN(c2ccc(S(=O)(=O)O)cc2)C(=O)C1N=Nc1ccc(-c2ccc(N=Nc3ccc(OS(=O)(=O)c4ccc(C)cc4)cc3)c(S(=O)(=O)O)c2)cc1 (stereo not drawn) ?
Resp: N

Req: What call does the record list for CN1CCN(c2ccc(-c3cc4c(Nc5ccc(F)c(Cl)c5)ncnn4c3)cn2)CC1 ?
Resp: N

Req: Each compound tested received a call. Report the one for NCCNc1nc2ccccc2c2c(=O)c3cc(F)ccc3sc12 .
Resp: N

Req: Please state the recorded outcome for this compound: COc1cc(C(=O)/C=C/c2ccc(OCCCCCC[P+](c3ccccc3)(c3ccccc3)c3ccccc3)cc2)cc(OC)c1OC
Resp: Y

Req: Please indicate how the test categorized Cc1cccc(OCC(O)CN2CCN(c3ccc(Cl)cc3)CC2)c1 (stereo not drawn) .
Resp: N

Req: For COc1ccc2sc3c(NCCO)nc4ccccc4c3c(=O)c2c1 , what call appears in the results of this test?
Resp: N

Req: Could you check what this test reported for COc1ccc(S(=O)(=O)n2cc(C3OC(c4cc(OC)c(OC)c(OC)c4)=NN3C(C)=O)c3ccccc32)cc1OC (stereo not drawn) ?
Resp: N

Req: In this assay, the call recorded for BrCCCc1n(Cc2ccc3ccccc3c2)c2ccccc2[n+]1Cc1ccc2ccccc2c1 was what?
Resp: Y
